target: human CLDN6 fused to GFP, expressed on engineered HEK293T cells (human) (UniProt P56747); experiment: FACS, 293T clone with human CLDN6, 1.5 ug Ab
reported-metric: FACS signal

binder | readout-number
AB3-3 (antibody, V domains shown) VH: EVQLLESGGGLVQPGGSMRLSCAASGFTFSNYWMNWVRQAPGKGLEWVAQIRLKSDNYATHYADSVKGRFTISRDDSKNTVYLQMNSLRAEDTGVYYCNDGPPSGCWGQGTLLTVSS VL: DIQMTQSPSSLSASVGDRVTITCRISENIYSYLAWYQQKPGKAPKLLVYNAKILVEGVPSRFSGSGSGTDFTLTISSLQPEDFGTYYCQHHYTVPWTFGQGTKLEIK | 340000
AB4-10 (antibody, V domains shown) VH: QVQLVQSGAEVKKPGASVKMSCKASGYTFTSYTMHWIRQAPGQGQEWIGYINPSSTYTHYIKKFKDRATLTADTSTSTAYMELSSLRSEDTAVYYCSRGELGGFAYWGQGTLVTVSS VL: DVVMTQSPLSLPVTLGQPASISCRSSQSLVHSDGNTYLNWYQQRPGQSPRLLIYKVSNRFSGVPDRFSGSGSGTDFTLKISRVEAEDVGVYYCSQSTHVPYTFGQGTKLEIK | 77200

This collection of values is drawn from patent US20220177583A1.
